system: CEM cells HIV-1 protection, formazan growth assay; assay: NCI AIDS Antiviral Assay;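 active means compounds giving half or more protection of infected cells from virus-caused growth loss, again on retest; inactive means the rest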
# output must be one of active, inactive

Hi, sorry to bother you, what did the test record for Cc1ccc(/C=C2/N=C([Se])N(C)C2=O)cc1 ?
inactive

Hi, sorry to bother you, what did the test record for COc1ccc2c(c1)CCC1=C/C(=N\NC(N)=O)CCC12C (stereo not given) ?
inactive

Hi, sorry to bother you, what did the test record for O=[N+]([O-])c1ccc(N=Nc2c(O)c(N=Nc3cc([N+](=O)[O-])cc([N+](=O)[O-])c3O)cc(N=Nc3cc(S(=O)(=O)O)cc4cc(S(=O)(=O)O)cc(O)c34)c2O)cc1 ?
active

Hi, sorry to bother you, what did the test record for CCC(CS(=O)(=O)O)[N+](=O)[O-] (stereo not given) ?
inactive

Hi, sorry to bother you, what did the test record for CC1C(=O)C(C)C(c2cccs2)N(N=O)C1c1cccs1 (stereo not given) ?
inactive

Hi, sorry to bother you, what did the test record for CC(=O)N1C(c2[nH]c3ccccc3c2Cc2ccccc2)CCN1c1ccccc1 (stereo not given) ?
inactive

Hi, sorry to bother you, what did the test record for CCOC1=C(c2ccccc2)Oc2cccnc2-n2cccc21 ?
inactive

Hi, sorry to bother you, what did the test record for CC(C)/C(Cl)=N\OC(=O)Nc1ccc(F)c([N+](=O)[O-])c1 ?
inactive

Hi, sorry to bother you, what did the test record for Nc1ccc(C(=O)NN2C(=O)C(Cl)C2c2cc(Br)cc(Br)c2O)cc1 (stereo not given) ?
inactive

Hi, sorry to bother you, what did the test record for NC(Cc1ccccc1)c1nccs1 (stereo not given) ?
inactive

* * *

system: CEM cells HIV-1 protection, formazan growth assay; experiment: NCI AIDS Antiviral Assay
value-kind: EC50

Find the recorded EC50 belonging to CCc1ccc2oc(-c3cc(O)c(-c4nc5cc(CC)ccc5o4)cc3O)nc2c1 and report it.
> 200 µM

Find the recorded EC50 belonging to O=c1[nH]n(Cc2ccccc2)c2ccc([N+](=O)[O-])cc12 and report it.
> 200 µM

Find the recorded EC50 belonging to CC1(C)O[C@@H](CCl)C[C@H](C#N)O1 and report it.
> 200 µM

Find the recorded EC50 belonging to CN(/N=C/C=N/N(C)C1=NCCCCN1)C1=NCCCCN1 and report it.
> 200 µM

Find the recorded EC50 belonging to C=C1C(=O)OC2CC(C)C3CC(OC)OC(OC)C3(C)CC12 (stereo unspecified) and report it.
> 589 µM

Find the recorded EC50 belonging to O=c1nc2n(cc1F)C1OC(CCl)C(O)C1O2 (stereo unspecified) and report it.
> 200 µM

Find the recorded EC50 belonging to CO/C=C/C=C(\C#N)C(=O)OC and report it.
174 µM

Find the recorded EC50 belonging to CN=C(NCCCOC)c1ccc(NC(=O)c2ccc(C(=O)Nc3ccc(C(=NC)NCCCOC)cc3)c([N+](=O)[O-])c2)cc1 and report it.
> 200 µM

Find the recorded EC50 belonging to CC1(C)N=C(c2ccccc2)C2(c3ccccc3)N1C2(C)C (stereo unspecified) and report it.
> 234 µM

Find the recorded EC50 belonging to C#Cc1cccc(N2C(=O)CC(=P(c3ccccc3)(c3ccccc3)c3ccccc3)C2=O)c1 and report it.
> 11.2 µM

Find the recorded EC50 belonging to Cc1ccc(S(=O)(=O)N/N=C2/CCC(C(C)(C)C)CC2Br)cc1 (stereo unspecified) and report it.
> 200 µM

* * *

Test system: CEM cells HIV-1 protection, formazan growth assay
Assay: NCI AIDS Antiviral Assay
Details: measured here: growth of uninfected CEM cells
Method: The ability of compounds to protect human CEM cells from HIV-1 infection is measured as a screen for new compounds capable of inhibiting the HIV virus. Five concentrations of drug were tested on uninfected and infected cells and cell growth was measured using a soluble formazan assay. […] Compounds that provided at least 50% protection were retested. Compounds that provided at least 50% protection on retest were listed as moderately active. […]
I'd appreciate it if you could supply IC50 values for the items below.
The reply should contain only the number, in µM.

Find the recorded IC50 belonging to CCOC(=O)CC[C@H](NC(=O)N[C@H](C)c1ccccc1)C(=O)OCC and report it.
39.8

Find the recorded IC50 belonging to C=C1CN(S(=O)(=O)c2ccc(C)cc2)CCCCN(Cc2ccccc2)CCCN(S(=O)(=O)c2ccc(C)cc2)C1 and report it.
6.92

Find the recorded IC50 belonging to COC(=O)c1cc(C(=O)OC)c(C/C(=N/Nc2ccc([N+](=O)[O-])cc2[N+](=O)[O-])C(=O)Nc2cccc(C(F)(F)F)c2)nc1C/C(=N/Nc1ccc([N+](=O)[O-])cc1[N+](=O)[O-])C(=O)Nc1cccc(C(F)(F)F)c1 and report it.
70.8

Find the recorded IC50 belonging to S=C(NCCc1ccccn1)N/N=C(\c1ccccc1)c1ccccn1 and report it.
0.0676

Find the recorded IC50 belonging to Cc1[nH]c2ccccc2c1C(=O)CC1(O)C(=O)Nc2c(Cl)cc(Cl)cc21 (stereo not given) and report it.
158

Find the recorded IC50 belonging to COc1cc(N=Nc2cc(NC(C)=O)c(N=Nc3ccc(S(=O)(=O)O)cc3)cc2S(=O)(=O)O)c(C)cc1N=Nc1cc(OC)c(NC(=O)c2ccc(N)cc2)cc1C and report it.
191

Find the recorded IC50 belonging to COc1ccc(C2ON(c3ccccn3)CC=C2C)cc1 (stereo not given) and report it.
83.2

Find the recorded IC50 belonging to O=[N+]([O-])C(=C1NCCN1)/C(Cl)=C(\Cl)Br and report it.
16.6

Find the recorded IC50 belonging to NC(=S)C(=S)N=Cc1c(O)c2ccccc2oc1=O and report it.
102

Find the recorded IC50 belonging to O=C(NC(=Nc1ccccc1)SCSC(=Nc1ccccc1)NC(=O)c1c(Cl)cccc1Cl)c1c(Cl)cccc1Cl and report it.
14.1

* * *

test system: CEM cells HIV-1 protection, formazan growth assay; test: NCI AIDS Antiviral Assay;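 active = compounds giving half or more protection of infected cells from virus-caused growth loss, again on retest; inactive = the rest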
# output must be one of true (1) for active, false (0) for inactive

Hi, sorry to bother you, what did the test record for CC(C)=CCOc1cc(O)c2c(O)c3c(cc2c1)CC(C)(C)CC3=O ?
false (0)

Hi, sorry to bother you, what did the test record for Cc1ccc(S(=O)(=O)NC(=O)Nc2nc(Cl)cc(Cl)n2)cc1 ?
false (0)

Hi, sorry to bother you, what did the test record for CCC1(Br)C(=O)NC(=O)NC1=O ?
true (1)

Hi, sorry to bother you, what did the test record for OC(c1cnc2sccn12)C(F)(F)Sc1ccccc1 (centres undefined) ?
false (0)

Hi, sorry to bother you, what did the test record for CCCCCCO/N=C\c1c2c(O)c3c(O)c(C)c4c(c3c1O)C(=O)C(C)(O/C=C\C(OC)C(C)C(OC(C)=O)C(C)C(O)C(C)C(O)C(C)/C=C\C=C(\C)C(=O)N2)O4 (centres undefined) ?
false (0)

Hi, sorry to bother you, what did the test record for N#Cc1c2c(c(Nc3ccc(Cl)cc3)n3c1nc1ccccc13)CCCC2 ?
false (0)

Hi, sorry to bother you, what did the test record for CC(=O)OC(C)(C)CCC(=O)[C@](C)(O)[C@H]1[C@H](O)C[C@@]2(C)[C@@H]3CC=C4C(C)=C(OC5OC(CO)C(O)C(O)C5O)C(=O)C[C@@H]4[C@]3(C)C(=O)C[C@]12C (some centres undefined) ?
false (0)

Hi, sorry to bother you, what did the test record for Cc1c2ccccc2nc(CN2CCOCC2)[n+]1[O-] ?
false (0)

Hi, sorry to bother you, what did the test record for CC1NC(=O)c2c(-c3ccccc3)nn(-c3ccccc3)c2NC1=O (centres undefined) ?
false (0)

* * *

tested on: CEM cells HIV-1 protection, formazan growth assay; assay: NCI AIDS Antiviral Assay; conditions: measured here: growth of uninfected CEM cells
value-kind: IC50 (µM)
The reply should contain only the number, in µM.

Find the recorded IC50 belonging to COCC(O)COn1c(=O)c(C#N)[n+]([O-])c2ccccc21 (configuration not stated) and report it.
30.2

Find the recorded IC50 belonging to Cn1c(=O)c(-c2ccccc2)c(N=[N+]=[N-])c2ccccc21 and report it.
135

Find the recorded IC50 belonging to O=C1c2ccccc2CC12Cc1ccc3c(c1C2)CCC3 (configuration not stated) and report it.
89.1

Find the recorded IC50 belonging to O=[N+]([O-])c1cccc(S(=O)(=O)c2ccc(F)c([N+](=O)[O-])c2)c1 and report it.
0.501

Find the recorded IC50 belonging to C=CCN1C(=O)CS/C1=N\NC(=O)c1c(C)nc2sccn12 and report it.
240

Find the recorded IC50 belonging to CC(C)C(C(=O)O)n1[se]c2ccccc2c1=O (configuration not stated) and report it.
120

* * *

tested on: CEM cells HIV-1 protection, formazan growth assay; experiment: NCI AIDS Antiviral Assay
value-kind: EC50

Find the recorded EC50 belonging to O=c1[nH]c(O)c(/C=N/C(=S)Nc2ccc(S(=O)(=O)Nc3nccs3)cc2)c(=O)[nH]1 and report it.
> 200 µM

Find the recorded EC50 belonging to Cn1c(=O)c2c(nc3n2CC(=O)N3CCCCl)n(C)c1=O and report it.
85.1 µM

Find the recorded EC50 belonging to CCCCCCCCS(=O)(=O)O and report it.
> 200 µM

Find the recorded EC50 belonging to c1ccc(CN2COc3c(ccc4ccccc34)C2)cc1 and report it.
> 200 µM

Find the recorded EC50 belonging to OCC1OC(O)C(N=C/C=C/c2ccccc2)C(O)C1O (stereo unspecified) and report it.
> 200 µM

Find the recorded EC50 belonging to Nc1nc2c3nc(Nc4ccccc4)sc3nc(=S)n2c2sc(Nc3ccccc3)nc12 and report it.
> 11 µM
